Source of measurements: the supplement of paper PMC6555819

system: LXRb:RXRa (NR concentration 270 nM, RXRa partner concentration 90 nM); experiment: PBM binding z-score (relative to random genomic background probes); higher = stronger binding; sequences stand for … in GC…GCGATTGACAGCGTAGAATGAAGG
quantity: PBM binding z-score
Number only, no unit.

Exam item: Look up PBM binding z-score: `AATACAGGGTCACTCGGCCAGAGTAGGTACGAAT`
Marked response: 4.06

Exam item: Look up PBM binding z-score: `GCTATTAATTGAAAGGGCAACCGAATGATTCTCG`
Marked response: 0.408

Exam item: Look up PBM binding z-score: `GGAACTAGGGCATTCGAGTTGATAGCATGGCGAT`
Marked response: -0.433

Exam item: Look up PBM binding z-score: `GTACCAAGGTGAATAGGTAGTTGATGAGTAGGCG`
Marked response: 0.0207

Exam item: Look up PBM binding z-score: `AGTTAAAGTTCACTAGGTAACGTAAGATTCAGCT`
Marked response: 2.98

Exam item: Look up PBM binding z-score: `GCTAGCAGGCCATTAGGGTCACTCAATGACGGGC`
Marked response: 1.47

Exam item: Look up PBM binding z-score: `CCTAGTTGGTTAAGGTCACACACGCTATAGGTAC`
Marked response: 4.3

Exam item: Look up PBM binding z-score: `CGTCCAAGGTCATAGGAGGTCAGTGTAGACAGAT`
Marked response: 6.27

Exam item: Look up PBM binding z-score: `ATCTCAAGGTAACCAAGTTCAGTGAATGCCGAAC`
Marked response: 0.656

Exam item: Look up PBM binding z-score: `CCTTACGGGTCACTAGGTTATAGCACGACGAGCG`
Marked response: 2.64

Exam item: Look up PBM binding z-score: `AGTCAAAGATCACTAGGTAACGTAAGATTCAGCT`
Marked response: 0.152

Exam item: Look up PBM binding z-score: `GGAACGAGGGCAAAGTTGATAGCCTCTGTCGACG`
Marked response: 0.459

* * *

tested on: PPARg:RXRa 270nM:90nM, anti-RXR (NR concentration 270 nM, RXRa partner concentration 90 nM); test: PBM binding z-score (relative to random genomic background probes); higher = stronger binding; sequences stand for … in GC…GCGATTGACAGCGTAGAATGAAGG
Give true when the value for PBM binding z-score is at least 4. Give false when it is less.

Exam item: Check the entry `ACTTACGGGTCAACGAGGTTATGGCACGCGTATA` : does PBM binding z-score equal or exceed 4?
Marked response: true

Exam item: Check the entry `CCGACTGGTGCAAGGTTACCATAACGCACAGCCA` : does PBM binding z-score equal or exceed 4?
Marked response: false

Exam item: Check the entry `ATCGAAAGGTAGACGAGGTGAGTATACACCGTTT` : does PBM binding z-score equal or exceed 4?
Marked response: false

Exam item: Check the entry `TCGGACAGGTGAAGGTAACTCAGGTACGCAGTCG` : does PBM binding z-score equal or exceed 4?
Marked response: false

Exam item: Check the entry `TCTTGTAGATCAGCAGGTTATGAAAGCTGGCCAA` : does PBM binding z-score equal or exceed 4?
Marked response: false

Exam item: Check the entry `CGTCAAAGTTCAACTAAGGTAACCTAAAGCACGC` : does PBM binding z-score equal or exceed 4?
Marked response: true

Exam item: Check the entry `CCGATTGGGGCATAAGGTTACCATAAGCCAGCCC` : does PBM binding z-score equal or exceed 4?
Marked response: false

Exam item: Check the entry `CAAACTAGGTCACGAAAGGTCAAAGTCGAATGAC` : does PBM binding z-score equal or exceed 4?
Marked response: true

Exam item: Check the entry `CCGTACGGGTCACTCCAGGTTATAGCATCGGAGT` : does PBM binding z-score equal or exceed 4?
Marked response: false

Exam item: Check the entry `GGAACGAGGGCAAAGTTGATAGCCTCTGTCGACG` : does PBM binding z-score equal or exceed 4?
Marked response: true
